system: WPMY1-CANX-COX4; experiment: phenotypically active (imaging signature differs from DMSO and reproducible) at any of 0.3-9 uM (binary (1 = active, 0 = inactive)); higher = active; conditions: treatment time: 24 h
Output constraint: value belongs to yes for active, no for inactive

Observe how each entry below is paired with its result.
molecule	cat
O=C1NCCN1CCN1CCC(c2cn(-c3ccc(F)cc3)c3ccc(Cl)cc23)CC1	yes
CC[C@]1(O)C[C@@H]2CN(CCc3c([nH]c4ccccc34)[C@@](C(=O)OC)(c3cc4c(cc3OC)N(C=O)[C@H]3[C@@](O)(C(=O)OC)[C@H](OC(C)=O)[C@]5(CC)C=CCN6CC[C@]43[C@@H]65)C2)C1	yes
CC(C(=O)Nc1cccc(/N=C/c2c(O)ccc3ccccc23)c1)c1ccccc1 (centres undefined) [Salermide]	no
COc1ccc([C@H]2CNC(=O)C2)cc1OC1CCCC1 [(S)-(+)-Rolipram]	no

Query: Please indicate how the test categorized Cc1cccc(-c2n[nH]cc2-c2ccc(F)c(-c3cnn(CCO)c3)c2)n1 .
Result: yes

Query: Queued: Nc1ccc(N=Nc2ccccc2)c(N)n1
Result: no

Query: Queued: O=C(Nc1ccccc1)N1CCC(Cc2cnc3ccccc3c2)CC1
Result: no

Query: Queued: COCCCOc1ccnc(CS(=O)c2nc3ccccc3[nH]2)c1C (centres undefined)
Result: no

Query: Queued: O=C(O)CCN(O)C(=O)CCCCCCCCC1CC1
Result: no

Query: Queued: c1cc(-c2cc(C3CCNCC3)[nH]n2)ccn1
Result: yes

###

Listing: phenotypically active of selected compounds
tested on: HepG2-TP53BP1-CLTA; experiment: phenotypically active (imaging signature differs from DMSO and reproducible) at any of 0.3-9 uM (binary (1 = active, 0 = inactive)); higher = active; details: treatment time: 24 h
Structures can show the parent of a compound that is named as a salt.
// return a plain number; no unit text

compound	target	endpoint value
CC[C@@H]1C(=O)N(C)c2cnc(Nc3ccc(C(=O)NC4CCN(C)CC4)cc3OC)nc2N1C1CCCC1	HepG2-TP53BP1-CLTA	1
C[C@@H](c1ncncc1F)[C@](O)(Cn1cncn1)c1ccc(F)cc1F	HepG2-TP53BP1-CLTA	0
N=C(N)NC(=N)NCCc1ccccc1	HepG2-TP53BP1-CLTA	0
COc1ccccc1C(=O)Nc1cc2c(cc1N1CCCC1)n(C)c(=O)n2C	HepG2-TP53BP1-CLTA	0

Query: Can you look up the measured phenotypically active of COc1cc2c(cc1OC)-c1c/c(=N/c3c(C)cc(C)cc3C)n(C)c(=O)n1CC2 [Trequinsin hydrochloride] for me?
Result: 0

###

tested on: HepG2-TUBA1B-RELA; assay: phenotypically active (imaging signature differs from DMSO and reproducible) at any of 0.3-9 uM (binary (1 = active, 0 = inactive)); higher = active; settings: treatment time: 24 h
Counter-ions that a name gives are not always drawn.
Listing: phenotypically active of selected molecules

molecule	experimental readout	endpoint value
CC(C)NC[C@H](O)COc1cccc2ccccc12 [(S)-(-)-Propranolol hydrochloride]	phenotypically active	0 (inactive)
Nc1nnc(Sc2ncc([N+](=O)[O-])s2)s1	phenotypically active	0 (inactive)
CC(C)c1ccc(CC(=O)N2CCC[C@@H](c3cccc(OC(C)(C)C(=O)O)c3)C2)cc1	phenotypically active	0 (inactive)
C/C(=N/NC(=N)N)c1ccc(NC(=O)Nc2ccc(/C(C)=N/NC(=N)N)cc2)cc1	phenotypically active	1 (active)

Query: Can you look up the measured phenotypically active of CC(=O)O[C@H]1C[C@@H]2CC[C@@H]3[C@H](CC[C@@]4(C)[C@H]3C[C@H]([N+]3(C)CCCCC3)[C@@H]4OC(C)=O)[C@@]2(C)C[C@@H]1N1CCCCC1 for me?
Result: 0 (inactive)

Query: Queued: O=C(NCC1CCCCN1)c1cc(OCC(F)(F)F)ccc1OCC(F)(F)F (centres undefined) [flecainide]
Result: 0 (inactive)

Query: Queued: CC(C)(C)Nc1nc(Nc2ccc(C(N)=O)cc2)cc(N)c1C#N
Result: 1 (active)

Query: Queued: O=C(CCCCCN1C(=O)c2cccc3cccc(c23)C1=O)NO
Result: 1 (active)

Query: Queued: C=CCc1ccccc1OC[C@@H](O)CNC(C)C [Alprenolol hydrochloride]
Result: 0 (inactive)

Query: Queued: Cc1c[nH]c2nccc(Oc3c(F)cc(Nc4cc(Cl)nc(N)n4)cc3F)c12
Result: 1 (active)

Query: Queued: O=C(Nc1ccccc1)N1CCN(c2nc(-c3ccccc3)ns2)CC1
Result: 1 (active)

Query: Queued: O=C(NCc1ccccn1)Nc1nnc(-c2ccco2)o1
Result: 0 (inactive)

Query: Queued: N#Cc1c(C2CCNCC2)cc(-c2c(O)cccc2OCC2CC2)nc1N
Result: 1 (active)

Query: Queued: Cc1cc(F)c(Nc2ncnc3cc(OCc4ccccc4)ccc23)cc1O
Result: 0 (inactive)

Query: Queued: O=C(Nc1ccccc1)c1cc([N+](=O)[O-])ccc1Cl
Result: 0 (inactive)

Query: Queued: CCCOc1ccn2c(C(C)=O)cc(-c3ccccc3S(C)(=O)=O)c2c1
Result: 0 (inactive)

Query: Queued: Nc1ccn([C@@H]2O[C@H](CO)[C@@H](O)C2(F)F)c(=O)n1
Result: 1 (active)

Query: Queued: Cc1occc(=O)c1O [3-hydroxy-2-methyl-4-pyrone]
Result: 0 (inactive)

Query: Queued: CC(=O)Oc1ccccc1C(=O)O
Result: 0 (inactive)

Query: Queued: COc1ccc(CCc2nc3c(C)c(-c4c(C)noc4C)c(C)cc3n2CCN2CCOCC2)cc1
Result: 0 (inactive)

Query: Queued: C#C[C@]1(O)CC[C@H]2[C@@H]3CCC4=CCCC[C@@H]4[C@H]3C(=C)C[C@@]21CC
Result: 0 (inactive)

Query: Queued: O=c1oc2c(O)c(O)cc3c(=O)oc4c(O)c(O)cc1c4c23
Result: 0 (inactive)

Query: Queued: COc1ccc(C(C)=O)c(O)c1 [2'-Hydroxy-4'-Methoxyacetophenone]
Result: 0 (inactive)

Query: Queued: N=C(N)c1ccc(OCCCCCOc2ccc(C(=N)N)cc2)cc1
Result: 1 (active)

Query: Queued: CN1CC(=O)N2[C@H](c3ccc4c(c3)OCO4)c3[nH]c4ccccc4c3C[C@@H]2C1=O
Result: 0 (inactive)

Query: Queued: O=C(Nc1cccnn1)N1CCN(c2nccc(-c3ccc(F)c(F)c3)n2)CC1
Result: 0 (inactive)

Query: Queued: COc1cc2c(cc1OCCCN1CCCC1)N=C(N)C21CCC1
Result: 0 (inactive)
